Numbers sourced from paper PMC10397247.

Molecular target: T1, 4H687-AA
T1 chain: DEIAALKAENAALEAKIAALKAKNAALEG
Assay: two-hybrid library CCmax;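 note: natural log of median RNA to DNA barcode read ratio; higher means stronger binding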
Settings: mean of both orientations
In this section we review reported interaction score values for a set of binders.
Give the figure only, with no unit attached.

[
  {
    "Binder": "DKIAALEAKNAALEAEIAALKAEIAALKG [4H2442-AA]",
    "Measured Value": -1.85
  },
  {
    "Binder": "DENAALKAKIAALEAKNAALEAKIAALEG [4H1845-AA]",
    "Measured Value": -1.51
  },
  {
    "Binder": "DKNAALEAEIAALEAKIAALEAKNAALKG [4H3112-AA]",
    "Measured Value": -0.855
  },
  {
    "Binder": "DKNAALKAKNAALEAKIAALEAEIAALEG [4H4001-AA]",
    "Measured Value": -2.04
  }
]

Form field: reported interaction score of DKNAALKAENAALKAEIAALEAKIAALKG [4H3782-AA]
-0.545

Also check DKNAALKAKIAALEAEIAALKAKNAALEG [4H3855-AA]
-1.5

Same thing, different binder: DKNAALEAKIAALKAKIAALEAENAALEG [4H3427-AA]
-1.62
